System: Bacillus cereus
Experiment: Inhibition of Bacillus cereus PC-PLC assessed as residual activity at 10 uM using phosphatidylcholine as substrate measured after 1 hr by horseradish peroxidase/alkaline phosphatase/choline oxidase-coupled amplex red reagent based fluorescence assay relative to control
Entries annotated with measured Activity
observation type: Activity

{"columns": ["compound smiles", "value observed"],
 "data": [
  ["CC(C)(C)OC(=O)N1CCN(c2ccc(NCc3cccc(F)c3)cc2)CC1", "33.5%"],
  ["COC(=O)c1cc(NCc2ccccc2F)ccc1N1CCOCC1", "56.8%"],
  ["COc1ccc(CNc2ccc(N3CCOCC3)c(C(=O)O)c2)cc1", "32.3%"],
  ["CC(C)(C)OC(=O)N1CCN(c2ccc(NCc3ccccc3Cl)cc2)CC1", "43.2%"],
  ["Clc1ccccc1CNc1ccc(N2CCOCC2)cc1", "7.9%"],
  ["O=C(O)c1cc(NCc2ccccc2Br)ccc1N1CCOCC1", "40.4%"],
  ["Cc1ccccc1CNc1ccc(N2CCNCC2)cc1", "29.3%"],
  ["Cc1ccccc1CNc1ccc(N2CCCCC2)cc1", "14.7%"],
  ["O=C(O)c1cc(NCc2cccc(Oc3ccccc3)c2)ccc1N1CCOCC1", "47.5%"],
  ["c1ccc(CNc2ccc(N3CCNCC3)cc2)cc1", "26.3%"],
  ["CC(C)(C)OC(=O)N1CCN(c2ccc(NCc3ccc(O)cc3)cc2)CC1", "23.9%"],
  ["O=C(O)c1cc(NCc2cccc(F)c2)ccc1N1CCOCC1", "49.5%"],
  ["CC(C)(C)OC(=O)N1CCN(c2ccc(NCc3ccc(F)cc3)cc2)CC1", "68.3%"],
  ["COC(=O)c1cc(NCc2ccc(O)cc2)ccc1N1CCOCC1", "48.3%"],
  ["COC(=O)c1cc(NCc2ccccc2OC)ccc1N1CCOCC1", "43.7%"],
  ["Fc1ccccc1CNc1ccc(N2CCCCC2)cc1", "9%"],
  ["Fc1cccc(CNc2ccc(N3CCOCC3)cc2)c1", "6.1%"],
  ["CN1CCN(c2ccc(NCc3ccc(Cl)cc3)cc2)CC1", "16.6%"],
  ["CN1CCN(c2ccc(NCc3ccccc3C(F)(F)F)cc2)CC1", "25.4%"],
  ["COC(=O)c1cc(NCc2ccccc2C)ccc1N1CCOCC1", "58.4%"],
  ["CN1CCN(c2ccc(NCc3ccccc3O)cc2)CC1", "13.4%"],
  ["Oc1ccccc1CNc1ccc(N2CCOCC2)cc1", "0%"],
  ["Cc1cc(C)c(CNc2ccc(N3CCOCC3)cc2)c(C)c1", "28.9%"],
  ["Oc1ccc(CNc2ccc(N3CCNCC3)cc2)cc1", "51.3%"],
  ["COC(=O)c1cc(NCc2ccc(-c3ccccc3)cc2)ccc1N1CCOCC1", "100%"]
]}

====

Tested on: Bacillus cereus
Assay: Inhibition of Bacillus cereus PC-PLC assessed as residual activity at 10 uM using phosphatidylcholine as substrate measured after 1 hr by horseradish peroxidase/alkaline phosphatase/choline oxidase-coupled amplex red reagent based fluorescence assay relative to control
The threshold is 40%. Values of Activity beneath it are tagged yes (1); values meeting or exceeding it are tagged no (0).

{"columns": ["compound smiles", "target system", "assigned class"],
 "data": [
  ["Brc1ccc(CNc2ccc(N3CCOCC3)cc2)cc1", "Bacillus cereus", "yes (1)"],
  ["COc1ccccc1CNc1ccc(N2CCN(C(=O)OC(C)(C)C)CC2)cc1", "Bacillus cereus", "yes (1)"],
  ["COC(=O)c1cc(NCc2cccc(Oc3ccccc3)c2)ccc1N1CCOCC1", "Bacillus cereus", "no (0)"],
  ["CC(C)(C)OC(=O)N1CCN(c2ccc(NCc3cccc(O)c3)cc2)CC1", "Bacillus cereus", "yes (1)"],
  ["Fc1ccccc1CNc1ccc(N2CCOCC2)cc1", "Bacillus cereus", "yes (1)"],
  ["O=C(O)c1cc(NCc2cccc(O)c2)ccc1N1CCOCC1", "Bacillus cereus", "no (0)"],
  ["COC(=O)c1cc(NCc2ccccc2Br)ccc1N1CCOCC1", "Bacillus cereus", "no (0)"],
  ["Fc1cccc(CNc2ccc(N3CCNCC3)cc2)c1", "Bacillus cereus", "yes (1)"],
  ["Cc1cccc(CNc2ccc(N3CCOCC3)cc2)c1", "Bacillus cereus", "yes (1)"],
  ["COC(=O)c1cc(NCc2cccc(O)c2)ccc1N1CCOCC1", "Bacillus cereus", "no (0)"],
  ["FC(F)(F)c1ccc(CNc2ccc(N3CCOCC3)cc2)cc1", "Bacillus cereus", "yes (1)"],
  ["Oc1ccc(CNc2ccc(N3CCCCC3)cc2)cc1", "Bacillus cereus", "yes (1)"],
  ["Fc1ccc(CNc2ccc(N3CCOCC3)cc2)cc1", "Bacillus cereus", "yes (1)"],
  ["Brc1ccccc1CNc1ccc(N2CCOCC2)cc1", "Bacillus cereus", "yes (1)"],
  ["COC(=O)c1cc(NCc2cccc(Br)c2)ccc1N1CCOCC1", "Bacillus cereus", "no (0)"],
  ["COC(=O)c1cc(NCc2ccccc2Cl)ccc1N1CCOCC1", "Bacillus cereus", "no (0)"],
  ["Clc1cccc(CNc2ccc(N3CCNCC3)cc2)c1", "Bacillus cereus", "yes (1)"],
  ["COC(=O)c1cc(NCc2ccc(Cl)cc2)ccc1N1CCOCC1", "Bacillus cereus", "no (0)"],
  ["Cc1cc(C)c(CNc2ccc(N3CCOCC3)c(C(=O)O)c2)c(C)c1", "Bacillus cereus", "no (0)"],
  ["Fc1ccccc1CNc1ccc(N2CCNCC2)cc1", "Bacillus cereus", "yes (1)"],
  ["Cc1ccccc1CNc1ccc(N2CCN(C(=O)OC(C)(C)C)CC2)cc1", "Bacillus cereus", "yes (1)"],
  ["COC(=O)c1cc(NCc2ccc(C(F)(F)F)cc2)ccc1N1CCOCC1", "Bacillus cereus", "no (0)"],
  ["Brc1ccccc1CNc1ccc(N2CCNCC2)cc1", "Bacillus cereus", "yes (1)"],
  ["O=C(O)c1cc(NCc2ccc(F)cc2)ccc1N1CCOCC1", "Bacillus cereus", "yes (1)"],
  ["CN1CCN(c2ccc(NCc3ccccc3Br)cc2)CC1", "Bacillus cereus", "yes (1)"],
  ["COC(=O)c1cc(NCc2cccc(F)c2)ccc1N1CCOCC1", "Bacillus cereus", "no (0)"],
  ["Brc1ccccc1CNc1ccc(N2CCCCC2)cc1", "Bacillus cereus", "yes (1)"],
  ["COc1cccc(CNc2ccc(N3CCOCC3)cc2)c1", "Bacillus cereus", "yes (1)"],
  ["Oc1cccc(CNc2ccc(N3CCOCC3)cc2)c1", "Bacillus cereus", "yes (1)"],
  ["CN1CCN(c2ccc(NCc3cccc(F)c3)cc2)CC1", "Bacillus cereus", "no (0)"],
  ["O=C(O)c1cc(NCc2ccccc2F)ccc1N1CCOCC1", "Bacillus cereus", "yes (1)"],
  ["CN1CCN(c2ccc(NCc3ccccc3F)cc2)CC1", "Bacillus cereus", "no (0)"],
  ["Oc1ccccc1CNc1ccc(N2CCNCC2)cc1", "Bacillus cereus", "yes (1)"],
  ["Oc1cccc(CNc2ccc(N3CCCCC3)cc2)c1", "Bacillus cereus", "yes (1)"],
  ["Fc1ccc(CNc2ccc(N3CCNCC3)cc2)cc1", "Bacillus cereus", "yes (1)"],
  ["O=C(O)c1cc(NCc2cccc(C(F)(F)F)c2)ccc1N1CCOCC1", "Bacillus cereus", "no (0)"],
  ["c1ccc(CNc2ccc(N3CCOCC3)cc2)cc1", "Bacillus cereus", "yes (1)"],
  ["FC(F)(F)c1cccc(CNc2ccc(N3CCOCC3)cc2)c1", "Bacillus cereus", "yes (1)"],
  ["COC(=O)c1cc(NCc2ccc(Br)cc2)ccc1N1CCOCC1", "Bacillus cereus", "no (0)"],
  ["O=C(O)c1cc(NCc2cccc(Cl)c2)ccc1N1CCOCC1", "Bacillus cereus", "yes (1)"],
  ["O=C(O)c1cc(NCc2ccc(O)cc2)ccc1N1CCOCC1", "Bacillus cereus", "no (0)"],
  ["Clc1ccc(CNc2ccc(N3CCNCC3)cc2)cc1", "Bacillus cereus", "yes (1)"],
  ["O=C(O)c1cc(NCc2ccc(Br)cc2)ccc1N1CCOCC1", "Bacillus cereus", "yes (1)"],
  ["COC(=O)c1cc(NCc2ccccc2)ccc1N1CCOCC1", "Bacillus cereus", "no (0)"],
  ["COc1ccccc1CNc1ccc(N2CCNCC2)cc1", "Bacillus cereus", "yes (1)"],
  ["Oc1cccc(CNc2ccc(N3CCNCC3)cc2)c1", "Bacillus cereus", "yes (1)"],
  ["COC(=O)c1cc(NCc2ccccc2C(F)(F)F)ccc1N1CCOCC1", "Bacillus cereus", "no (0)"],
  ["CN1CCN(c2ccc(NCc3cccc(Cl)c3)cc2)CC1", "Bacillus cereus", "yes (1)"]
]}
